Entries and their measured IC50 follow.
# targetUnderTest: HIV-integrase (recombinant integrase) (Human immunodeficiency virus type 1 group M subtype B)
# Construct: Recombinant integrase (0.26 ng) was incubated with the beads
# testMethodNotes: HIV-Integrase Inhibition Activity (SPA bead strand-transfer assay)
# cond: recombinant integrase on biotin labeled substrate DNA/SPA beads, P33 labeled target DNA; read-out: Activity (IC50 against HIV-integrase)

Look over these answered cases.
Cc1cc(CNC(=O)c2nc(N3CCCCC3CO)n(C)c(=O)c2O)ccc1F (centres unmarked); 0.003 to 0.1 µM
Cn1c(N2CCN(c3ccccn3)CC2)nc(C(=O)NCc2ccc(F)cc2)c(O)c1=O; 0.003 to 0.1 µM
Cc1cc(CNC(=O)c2nc(-n3ncccc3=O)n(C)c(=O)c2O)ccc1F; 0.003 to 0.1 µM
Cn1c(N2CCCCC2CCO)nc(C(=O)NCc2ccc(F)cc2)c(O)c1=O (centres unmarked); 0.003 to 0.1 µM
Cc1cc(CNC(=O)c2nc(N3CCCCS3(=O)=O)n(C)c(=O)c2O)ccc1F; 0.003 to 0.1 µM
Cn1c(N2CCCCS2(=O)=O)nc(C(=O)NCc2cccc(OC(F)(F)F)c2)c(O)c1=O; 0.1 to 1 µM

Query: // IC50 lookup, key: Cn1c(N2CCN(CCO)CC2)nc(C(=O)NCc2ccc(F)cc2)c(O)c1=O
Reply: 0.003 to 0.1 µM

Query: Give the measured IC50 of Cn1c(N2CCCCS2(=O)=O)nc(C(=O)NCc2ccc(F)cc2)c(O)c1=O .
Reply: 0.003 to 0.1 µM

---

# targetUnderTest: HIV-integrase (recombinant integrase) (Human immunodeficiency virus type 1 group M subtype B)
# Construct: Recombinant integrase (0.26 ng) was incubated with the beads
# testMethodNotes: HIV-Integrase Inhibition Activity (SPA bead strand-transfer assay)
# cond: recombinant integrase on biotin labeled substrate DNA/SPA beads, P33 labeled target DNA; read-out: Activity (IC50 against HIV-integrase)
quantityMeasured: IC50

Cn1c(N2CCCCS2(=O)=O)nc(C(=O)NCc2ccc(F)c(Cl)c2)c(O)c1=O; 3 to 100 nM
COc1cc(CNC(=O)c2nc(N3CCCCS3(=O)=O)n(C)c(=O)c2O)cc(OC)c1OC; ≥ 1000 nM
CCCN1CCN(c2nc(C(=O)NCc3ccc(F)cc3)c(O)c(=O)n2C)CC1; 3 to 100 nM

Could you now consider this next compound?
Query: Please give the measured IC50 for this compound: Cc1ccc(CNC(=O)c2nc(N3CCCCS3(=O)=O)n(C)c(=O)c2O)o1
Reply: 3 to 100 nM

---

Listing of recorded pIC50 by entry.
# targetUnderTest: HIV-integrase (recombinant integrase) (Human immunodeficiency virus type 1 group M subtype B)
# Construct: Recombinant integrase (0.26 ng) was incubated with the beads
# testMethodNotes: HIV-Integrase Inhibition Activity (SPA bead strand-transfer assay)
# cond: recombinant integrase on biotin labeled substrate DNA/SPA beads, P33 labeled target DNA; read-out: Activity (IC50 against HIV-integrase)
pIC50: −log10 of the molar value.

Query: Looking for the measured pIC50 of Cn1c(N2CCC2)nc(C(=O)NCc2ccc(F)cc2)c(O)c1=O , can you help?
Reply: 7.00 to 8.52

Query: Reported pIC50, compound Cn1c(N2CCCC2)nc(C(=O)NCc2ccc(F)cc2)c(O)c1=O : ____
Reply: 7.00 to 8.52

Query: Endpoint output: pIC50 of CC(=O)N1CCN(c2nc(C(=O)NCc3ccc(F)cc3)c(O)c(=O)n2C)CC1 . Value?
Reply: 7.00 to 8.52

Query: Entry Cc1ccccc1CNC(=O)c1nc(N2CCCCS2(=O)=O)n(C)c(=O)c1O has what pIC50?
Reply: 6.00 to 7.00
